- assayedSystem: Recombinant human MALT-1 (amino acids 340-824) (Homo sapiens (Human), UniProt Q9UDY8)
- Sequence (Q9UDY8 340-824): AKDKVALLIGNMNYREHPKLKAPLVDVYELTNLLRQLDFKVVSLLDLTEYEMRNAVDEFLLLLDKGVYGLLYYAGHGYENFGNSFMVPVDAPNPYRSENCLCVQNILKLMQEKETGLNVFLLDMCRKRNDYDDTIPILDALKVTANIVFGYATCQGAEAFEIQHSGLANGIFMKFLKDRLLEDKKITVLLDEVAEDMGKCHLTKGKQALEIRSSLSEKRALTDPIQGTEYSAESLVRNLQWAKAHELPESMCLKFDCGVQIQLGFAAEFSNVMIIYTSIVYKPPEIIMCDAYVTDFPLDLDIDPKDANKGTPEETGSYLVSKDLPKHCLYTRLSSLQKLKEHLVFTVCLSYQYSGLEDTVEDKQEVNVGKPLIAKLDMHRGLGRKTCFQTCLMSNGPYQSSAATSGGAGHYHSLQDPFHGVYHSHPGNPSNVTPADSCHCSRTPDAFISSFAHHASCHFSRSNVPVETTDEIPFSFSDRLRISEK
- assaySummary: MALT-1 inhibition assay (fluorogenic substrate Ac-LRSR-Rh110-DP)
- setupConditions: recombinant human MALT-1, substrate Ac-LRSR-Rh110-DP
- Procedure: MALT-1 paracaspase activity was measured using the fluorogenic substrate Ac-LRSR-Rh110-DP (purchased from Biosantan GmbH). […] The reaction was initiated by addition of substrate. Final concentrations of MALT-1 and substrate were 3 nM and 10 μM respectively. Reactions were incubated in the dark for 60 minutes at 25° C. […] Percent inhibition values were calculated from relative fluorescence units at different doses and fitted to a 4-parameter logistic curve to determine IC50 values (see Table 1).
pIC50: −log10 of the molar value.
Attribute: pIC50
propertyName: pIC50

> print(dat)
                                   compound  propertyname  reportedresult
1  CN(C(=O)[C@@H]1C[C@H]2CC[C@@H](C1)S2(=O)=O)[C@@H](c1ccc(N2CCCc3c2cnc2cc(Cl)nn32)cc1)C(F)(F)F [CPD0072938]         pIC50            7.05
2  CC1CCN(c2ccc([C@H](N(C)C(=O)C3CCS(=O)(=O)CC3)C(F)(F)F)cn2)c2cnc3cc(Cl)nn3c21 (stereo partly drawn) [CPD0021812]         pIC50            6.97
3  CN(C(=O)C[C@@H]1CCS(=O)(=O)C1)[C@@H](c1ccc(N2CCCc3c2cnc2cc(Cl)nn32)cc1)C(F)(F)F (relative stereo) [CPD0072800]         pIC50            7.04
4  CN(C(=O)C1CC(O)C1)[C@@H](c1ccc(N2CCCc3c2cnc2cc(Cl)nn32)cc1)C(F)(F)F (stereo partly drawn) [CPD0073055]         pIC50            7.34
5  CN(C(=O)[C@H]1CCN(C(=O)C2(O)CC2)C1)[C@@H](c1ccc(N2CCCc3c2cnc2cc(Cl)nn32)cc1)C(F)(F)F (relative stereo) [CPD0073979]         pIC50            7.12
6  CN=[S@]1(=O)CC[C@H](C(=O)N(C)[C@@H](c2ccc(N3CCCc4c3cnc3cc(Cl)nn43)cc2)C(F)(F)F)CC1 (relative stereo) [CPD0072531]         pIC50            7.42
